# targetEntity: ENPP3 (Homo sapiens)
# Sequence (O14638 1-875): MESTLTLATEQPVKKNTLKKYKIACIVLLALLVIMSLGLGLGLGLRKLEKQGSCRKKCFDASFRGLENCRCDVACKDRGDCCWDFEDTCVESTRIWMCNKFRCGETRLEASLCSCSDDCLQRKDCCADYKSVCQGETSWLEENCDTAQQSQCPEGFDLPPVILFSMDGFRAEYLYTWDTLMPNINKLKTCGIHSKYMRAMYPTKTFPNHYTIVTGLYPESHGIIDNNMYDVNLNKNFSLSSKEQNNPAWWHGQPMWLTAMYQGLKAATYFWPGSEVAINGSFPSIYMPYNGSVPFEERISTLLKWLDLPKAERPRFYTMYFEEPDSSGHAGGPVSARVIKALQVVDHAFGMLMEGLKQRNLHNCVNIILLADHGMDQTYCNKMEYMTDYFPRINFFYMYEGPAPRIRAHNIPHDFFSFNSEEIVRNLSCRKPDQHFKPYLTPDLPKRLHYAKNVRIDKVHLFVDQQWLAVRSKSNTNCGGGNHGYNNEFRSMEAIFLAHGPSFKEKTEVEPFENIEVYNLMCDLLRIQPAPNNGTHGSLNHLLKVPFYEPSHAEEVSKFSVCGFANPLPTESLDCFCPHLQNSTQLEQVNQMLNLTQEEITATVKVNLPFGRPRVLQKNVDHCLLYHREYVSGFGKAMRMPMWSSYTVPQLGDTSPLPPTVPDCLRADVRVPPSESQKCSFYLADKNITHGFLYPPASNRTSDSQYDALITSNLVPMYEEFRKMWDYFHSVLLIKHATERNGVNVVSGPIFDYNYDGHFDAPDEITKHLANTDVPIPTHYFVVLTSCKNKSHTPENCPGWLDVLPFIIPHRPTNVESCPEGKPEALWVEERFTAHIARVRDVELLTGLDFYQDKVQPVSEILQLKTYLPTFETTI
# assayName: ENPP3 Km ATP assay
# Format: biochemical
# conditionNotes: ATP at Km
List of IC50 values.

Problem: Request: IC50, test system ENPP3 (Homo sapiens), entry Nc1nc(NCc2ccc(S(N)(=O)=O)cc2)c2c(-c3ccccc3)csc2n1
Solution: 0.1 to 1 µM

* * *

# targetEntity: UniProt O14638
# assayName: ENPP3 Km ATP assay
# Assay type: biochemical
# conditionNotes: ATP at Km
List of IC50 values.

Some solved cases for reference:
molSmiles: COc1cc(CNc2nc(-c3ccccn3)nc3scc(-c4ccccc4)c23)ccc1S(N)(=O)=O
targetEntity: UniProt O14638
result: 1 to 20 µM
--
molSmiles: Cn1ncc2c(NCc3ccc(S(N)(=O)=O)s3)nc(Cl)nc21
targetEntity: UniProt O14638
result: 0.1 to 1 µM
--
molSmiles: CCSc1nc(NCc2ccc(S(N)(=O)=O)cc2)c2cnn(CC)c2n1
targetEntity: UniProt O14638
result: 0.1 to 1 µM
--
molSmiles: CNc1cc(NCc2ccc(S(N)(=O)=O)cc2)c2cnn(C)c2n1
targetEntity: UniProt O14638
result: 0.1 to 1 µM
--
molSmiles: Cn1ncc2c(NCc3ccc(S(N)(=O)=O)cc3)cc(NCCO)nc21
targetEntity: UniProt O14638
result: 1 to 20 µM

Problem: Request: IC50, test system UniProt O14638, entry Cn1ncc2c(NCc3ccc(S(N)(=O)=O)cc3)nc(NCc3ccccc3)nc21
Solution: 0.1 to 1 µM

Problem: Request: IC50, test system UniProt O14638, entry COCCCNc1nc(NCc2ccc(S(N)(=O)=O)cc2)c2c(-c3ccccc3)csc2n1
Solution: < 0.1 µM

Problem: Request: IC50, test system UniProt O14638, entry Cn1ncc2c(NCc3ccc(S(N)(=O)=O)cc3F)ccnc21
Solution: 0.1 to 1 µM

Problem: Request: IC50, test system UniProt O14638, entry Cc1nc(NCc2ccc(S(N)(=O)=O)s2)c2c(-c3ccccc3)csc2n1
Solution: > 20 µM
